Just for reference, the Deep4Chem optical property database is where these values come from.

experiment: solvent given as SMILES; settings: in ClCCl
Field 'label' (enum: Met / Not met). Set to Met when emission maximum is strictly under 600 nm; else Not met.

hey, is emission maximum for O=C1c2cccc3c(C#CC#Cc4ccc5c6c(cccc46)C(=O)N(c4ccccc4)C5=O)ccc(c23)C(=O)N1c1ccccc1 lower than 600 nm or not?
Met

Decide: emission maximum of CC[n+]1ccc(/C=C/c2cc(OC)c(C=O)cc2OC)cc1 strictly below 600 nm?
Met

# strict comparison: is reported emission maximum < 600 nm? input = COc1cc(C=O)cc(-c2[nH]c(=O)n3c2-c2ccccc2C3=O)c1O
Met

Dear reviewer, please state whether CCOC(=O)c1c(-c2c(Cl)c3ccccc3oc2=O)nn(-c2ccc(Br)cc2)c1C(=O)OCC has emission maximum strictly beneath 600 nm.
Met

Confirm or reject: emission maximum of O=P(c1ccccc1)(c1ccccc1)n1c2ccccc2c2cc(-n3c4ccccc4c4cc(-n5c6ccccc6c6ccccc65)ccc43)ccc21 lies strictly below 600 nm
Met

Lab note: confirm whether the reported emission maximum for this compound is below 600 nm, equality not counting. compound: CC1=C(c2ccc(N(C)C)cc2)C(C)=[N+]2C1=C(c1c(-c3ccccn3)nc3ccccn13)c1c(C)c(-c3ccc(N(C)C)cc3)c(C)n1[B-]2(F)F
Not met

Identify whether the compound COc1ccc2c3c(c4ccc(OC)cc4c2c1)=[N+]1C(=C(c2c(C)cc(C)cc2C)c2cc4c5ccc(OC)cc5c5cc(OC)ccc5c4n2[B-]1(F)F)C=3 records emission maximum below 600 nm.
Not met

----------
As shown below, each of these compounds has a reported emission maximum value.
experiment: solvent given as SMILES; details: in CC#N
All answers are understood in nm, so give the number only.

Looking up CC1(C)[C@@H]2CC[C@]1(C)c1nc3cc(-c4cccs4)ccc3nc12 , I found its emission maximum recorded as 418

Looking up N#Cc1cc2ccc(O)cc2oc1=N , I found its emission maximum recorded as 408

Sample CC(=O)c1ccc(-c2nc3ccc(N(C)C)c(Cl)c3s2)cc1 ; emission maximum observed: 568

// field: emission maximum; key: N#Cc1nn(-c2c(Cl)cccc2Cl)nc1N1CCCC1 ; value = 418

Reported emission maximum ( c1ccc(-c2nc(-c3ccc(-c4ccc(N(c5ccccc5)c5ccccc5)cc4)cn3)oc2-c2ccccc2)cc1 ) = 507

Per the record, CNCCCC1c2ccccc2C=Cc2ccccc21 has emission maximum of 358

Data point: COc1cc(/C=C/c2cc[n+](Cc3ccc(Br)cc3)cc2)ccc1O ; emission maximum = 557

Lookup result for Cc1cc(O)c(C(=O)/C=C/c2ccccc2Cl)c(=O)o1 ; measured emission maximum: 481

Reported emission maximum ( COc1cc(/C=C/c2nc3ccccc3s2)c(OC)cc1/C=C/c1nc(C)nc(/C=C/c2cc(OC)c(/C=C/c3nc4ccccc4s3)cc2OC)n1 ) = 505

Sample N#CSC1=CC2=C(c3ccccc3)c3cc(SC#N)c(N4CCOCC4)n3[B-](F)(F)[N+]2=C1N1CCOCC1 ; emission maximum observed: 628

----------
emission maximum reference
assay: solvent given as SMILES; details: in CO
Field: numeric (nm). Do not append units.

Example results:
MOLECULE	UNIT SPEC	emission maximum
N#Cc1c(N2CCCCC2)cc(-c2ccc(O)cc2)c2c1-c1cccc3cccc-2c13	nm	554
[C-]#[N+]c1ccc(-c2ccc(N(C)C)cc2)cc1	nm	430
OB(O)c1ccc(-c2ccc(N(c3ccccc3)c3ccccc3)cc2)cc1	nm	432
c1cc2c(C3SCCCS3)c3ccc(=[N+]4CCCCC4)cc-3oc2cc1N1CCCCC1	nm	606.31
C(=C\c1c[nH]c2ccc(Oc3ccccc3)cc12)/C1=[NH+]c2cccc3cccc1c23	nm	584

Now, please, on to the next molecule.
Lab note: COc1ccc2c(c1)c1c(OC)c3ccccc3c(OC)c1n2C gave emission maximum of 441

----------
Entries annotated with measured emission maximum
test: solvent given as SMILES; conditions: in Cc1ccccc1
# value in nm; strip the unit string

MOLECULE	OBSERVED RESULT
CCCCC(CC)CN1C(=O)C2=C(c3ccc(-c4ccc(C5=C6C(C)=CC(C)=[N+]6[B-](F)(F)n6c(C)cc(C)c65)cc4)s3)N(CC(CC)CCCC)C(=O)C2=C1c1cccs1 (stereo unspecified)	623
COc1ccc(-c2nc3c(c4c2-c2ccc(C#N)cc2CC4)-c2ccc(C#N)cc2CC3)cc1	422
CC(C)(C)c1ccc(-c2nc3c4ccccc4c4ccccc4c3n2-c2ccc(C(C)(C)C)cc2)cc1	390
CC(C)c1cc(C(C)C)c(-c2nnc(-c3ccc(-n4c5ccccc5c5ccccc54)cc3)o2)c(C(C)C)c1	377
c1ccc(-c2nc(-c3ccccc3)nc(-c3ccc(-n4c5ccc(-n6c7ccccc7c7ccccc76)cc5c5cc(-n6c7ccccc7c7ccccc76)ccc54)cc3)n2)cc1	458
Cc1cc(C)c(N(c2ccccc2)c2ccc(S(=O)(=O)c3ccc(S(=O)(=O)c4ccc(N(c5ccccc5)c5c(C)cc(C)cc5C)cc4)cc3)cc2)c(C)c1	450

In plain terms, CCCCCCCCn1c2cc(/C=C/c3ccc(N(c4ccccc4)c4ccccc4)cc3)ccc2c2cc3c(cc21)c1ccc(/C=C/c2ccc(N(c4ccccc4)c4ccccc4)cc2)cc1n3CCCCCCCC has a documented emission maximum of 473

The measured emission maximum associated with O=C(O)c1ccc2ccc3cccc4ccc1c2c34 reads 392

emission maximum for CCCCC1(c2ccc(OC)cc2)Nc2ccccc2N=C1c1ccc(OC)cc1 (stereo unspecified) is 501

----------
test: solvent given as SMILES; settings: in CCO
ENDPOINT: emission maximum (nm)
Just the number in nm, nothing appended.

N#Cc1cnc(-c2c3ccccc3c(-c3ccccc3)c3ccccc23)nc1 520

Record Cc1ccc(C(=O)/C=C/c2ccc(N(C)C)cc2)cc1 . Reported emission maximum: 533

emission maximum recorded for this compound, O=c1c2cc(F)c(N3CCCCC3)cc2sc2cc(N3CCCCC3)c(F)cc12 , is 487

----------
test: solvent given as SMILES; conditions: in CS(C)=O
ENDPOINT: emission maximum (nm)
Note: unit nm is implicit; provide only the numeric part.

COc1ccc(/C=C/c2nc(/C=C/c3ccc(N(c4ccccc4)c4ccccc4)cc3)cc(/C=C/c3ccc(N(c4ccccc4)c4ccccc4)cc3)n2)cc1 584
C(#Cc1ncnc2ccccc12)c1ccc(N(c2ccccc2)c2ccccc2)cc1 616
CCCCn1cc(/C=C/c2cc(=O)oc3cc(C)ccc23)c2ccccc21 532

// next item, emission maximum requested
Noted for CCCCCCCCN1c2ccc(C#Cc3cc(C(F)(F)F)cc(C(F)(F)F)c3)cc2Sc2cc(C=O)ccc21 : its emission maximum reads 540

----------
assay: solvent given as SMILES; settings: in CCCCO
ENDPOINT: emission maximum (nm)
Value expressed in nm; do not type the unit.

# count of solved cases: 4
CCCCCCC(CCCCCC)N1C(=O)c2cccc3c(-c4ccc([Si](C)(C)C)cc4)ccc(c23)C1=O 434.2
COc1ccc(C(=O)/C=C2\C(=O)Nc3ccccc32)cc1 378
CCNc1ccc2c(C(F)(F)F)cc(=O)oc2c1 493
COc1cc(/C=C/c2cc[n+](Cc3ccc(Br)cc3)cc2)ccc1O 558

Please find the next compound below.
GET /value?item= COc1cccc(-n2c(-c3ccc(F)cc3)nc(C)c2C)c1 &field=emission maximum returns 370

----------
assay: solvent given as SMILES; settings: in CCO
Response key: MET means emission maximum >= 500 nm; NOT MET means emission maximum < 500 nm.

CCCCN1C(=O)C(=CC=C2N(CCCC)c3ccccc3N2CCCC)C(=O)N(CCCC)C1=S NOT MET

Item CCOC(=O)/C(C#N)=C\c1cn(-c2ccccc2)nc1-c1ccccc1 with emission maximum of 500 nm or above?
NOT MET

Threshold query (emission maximum >= 500 nm) on CCOC(=O)c1ccccc1-c1c2ccc(=O)cc-2oc2cc(OC(=O)[C@H](CSCc3ccc(C)cc3)NC(=O)OC(C)(C)C)ccc12
MET

Reported emission maximum reaches at least 500 nm for CCN(CC)c1ccc2cc(C#N)/c(=N\C(=O)c3ccc(F)cc3)oc2c1 ?
MET

Could you verify whether the entry CCN(CC)c1ccc2cc3ccc(=[N+](CC)CC)cc-3oc2c1 shows emission maximum of no less than 500 nm?
MET

----------
Entries annotated with measured emission maximum
assay: solvent given as SMILES; settings: in c1ccccc1
Remember to put the unit after the number in your answer.

Solved cases (2 shown):
COc1cccc(-n2c(-c3ccccc3)nc(C)c2C)c1 372 nm
CC(=O)c1ccc(-c2nc3ccc(N(C)C)c(Cl)c3s2)cc1 474.9 nm

Looking up Nc1ccccc1C(=O)O , I see its emission maximum listed as 394 nm

----------
assay: solvent given as SMILES; details: in CCO
ENDPOINT: emission maximum

Worked examples, 3 compounds total:
COMPOUND	ENDPOINT	OBSERVED RESULT
COc1cccc(-n2c(-c3ccccc3)nc(C)c2C)c1	emission maximum	369 nm
Cc1cc(C2(c3cc(C)c(O)c(Br)c3)OS(=O)(=O)c3ccccc32)cc(Br)c1O	emission maximum	507 nm
O=S(=O)([O-])c1cc([O-])c2ccc3c(S(=O)(=O)[O-])cc(S(=O)(=O)[O-])c4ccc1c2c34	emission maximum	510 nm

Record CCOC(=O)c1ccccc1-c1c2ccc(=[N+](CC)CC)cc-2oc2c1c(=O)oc1cc3c(cc12)CCCN3C , field emission maximum: 658 nm

The compound listed as Cc1cc2c(o1)c(C)cc1ccc(=O)oc12 has a reported emission maximum of 460 nm

Measured emission maximum of CC(C)(C)c1ccc2oc(-c3ccc(-c4nc5cc(C(C)(C)C)ccc5o4)s3)nc2c1 : 434 nm
